Attribution: PubChem BioAssay AID1845196

Let's look at some compounds and their measured viability, T/C.
# Test system: 292921-168-R tumor spheroid viability;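 note: spheroids exposed to compounds for 7 days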
# PROTOCOL_DESCRIPTION: Anticancer human tumor 292921-168-R patient-derived pancreatic carcinoma cell line growth inhibition
# STATED_CONDITIONS: second compound 31.6 µM; first compound 10 µM; active compounds read low; spheroids with HUVEC and MSC
Write down the numeric answer in % and omit the unit.

Use these answered entries as a reference point.
COMPOUND | RECORDED_NUMBER
CC1COCCN1c1cc(-c2ccnn2C)c2ccnc(-c3ccn[nH]3)c2n1 (stereo unspecified) + Cn1nnc2c(C(N)=O)ncn2c1=O | 15.3
Cc1cc(C)c(CNC(=O)c2cc(-c3ccc(CN4CCOCC4)cc3)cc3c2cnn3C2CCCC2)c(=O)[nH]1 + Cn1nnc2c(C(N)=O)ncn2c1=O | 51.1
COc1cc(C)[nH]c(=O)c1CN1CCc2c(Cl)cc(C(OC)C3COC3)c(Cl)c2C1=O (stereo unspecified) + Cn1nnc2c(C(N)=O)ncn2c1=O | 80.2

(Q) Would you mind telling me what viability, T/C value was observed for CC(C)n1c(=O)n(C)c2cnc3cc(F)c(-c4ccc(OCCCN5CCCCC5)nc4)cc3c21 + Cn1nnc2c(C(N)=O)ncn2c1=O ?
(A) 25.9

(Q) Now this one: COc1ccc([C@@H](O)c2cc(-c3ncnc4cc(N5CCOCC5)ccc34)c(F)cc2Cl)nn1 + Cn1nnc2c(C(N)=O)ncn2c1=O
(A) 18.6

(Q) Now this one: [2H]c1nc(C)nc([2H])c1-c1cc(NC[C@@H](C)c2cccc3c(C(=O)NC)ccnc23)ncn1 + Cn1nnc2c(C(N)=O)ncn2c1=O
(A) 75.4
